Form field: IC50 (one value per entry).
- target under test: UniProtKB P52699
- Sequence (P52699 19-246, looked up, species assumed): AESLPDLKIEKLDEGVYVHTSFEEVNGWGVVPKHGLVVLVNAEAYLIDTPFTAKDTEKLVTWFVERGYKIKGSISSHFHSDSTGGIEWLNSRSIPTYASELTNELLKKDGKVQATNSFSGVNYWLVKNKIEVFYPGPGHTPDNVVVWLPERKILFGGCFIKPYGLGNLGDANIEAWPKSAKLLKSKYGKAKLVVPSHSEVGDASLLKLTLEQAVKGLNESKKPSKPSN
- test summary: MBL inhibition, FC-5 fluorescence assay, IMP-1
- Assay type: biochemical
- condition summary: FC-5 cephalosporin substrate, fluorescence; ranges of obtained pIC50; read-out: pIC50 IMP-1 (converted)

>  <molecule>
C[C@@H](c1cccc2c(-c3cncc(O)c3)c(C(=O)O)[nH]c12)N1C[C@]2(C[C@@H](CN)C2)OC1=O

>  <IC50>
> 0.01 µM

$$$$
>  <molecule>
C[C@H](NC(=O)c1ccc(CN)cc1)c1cccc2c(-c3ccc(CN4CCOCC4)nc3)c(C(=O)O)[nH]c12

>  <IC50>
> 0.01 µM

$$$$
>  <molecule>
C[C@@H](c1cccc2c(-c3ccc4c(c3)CC(=O)N4)c(C(=O)O)[nH]c12)N1C[C@]2(C[C@@H](CN)C2)OC1=O

>  <IC50>
> 0.01 µM

$$$$
>  <molecule>
C[C@@H](c1cccc2c(-c3ccc(CS(C)(=O)=O)c(F)c3)c(C(=O)O)[nH]c12)n1cc(CCC2(N)CC2)oc1=O

>  <IC50>
> 0.01 µM

$$$$
>  <molecule>
CC(c1noc(CCCN)n1)c1cccc2c(-c3ccc(CS(C)(=O)=O)c(F)c3)c(C(=O)O)[nH]c12 (centres unmarked)

>  <IC50>
0.001 to 0.01 µM

$$$$
>  <molecule>
C[C@@H](c1cccc2c(-c3cc[nH]c(=O)c3)c(C(=O)O)[nH]c12)n1cc(CN2CC(N)C2)oc1=O

>  <IC50>
> 0.01 µM

$$$$
>  <molecule>
C[C@@H](c1cccc2c(-c3ccc(NS(C)(=O)=O)c(C#N)c3)c(C(=O)O)[nH]c12)n1cc(CN2CC(N)C2)oc1=O

>  <IC50>
> 0.01 µM

$$$$
>  <molecule>
CS(=O)(=O)Cc1ccc(-c2c(C(=O)O)[nH]c3c(COCc4ccc(CN)cc4)cccc23)cc1F

>  <IC50>
> 0.01 µM

$$$$
>  <molecule>
C[C@@H](c1cccc2c(-c3cccnc3)c(C(=O)O)[nH]c12)N1C[C@]2(C[C@@H](CN)C2)OC1=O

>  <IC50>
> 0.01 µM

$$$$
>  <molecule>
C[C@@H](c1cccc2c(-c3ccc(NS(C)(=O)=O)c(F)c3)c(C(=O)O)[nH]c12)n1cc(CN2CC(N)C2)oc1=O

>  <IC50>
> 0.01 µM

$$$$
>  <molecule>
COc1cc(-c2c(C(=O)O)[nH]c3c([C@H](C)n4cc(CN5CC(N)C5)oc4=O)cccc23)ccn1

>  <IC50>
> 0.01 µM

$$$$
>  <molecule>
CC(NC(=O)[C@H]1CC[C@H](CN)CC1)c1cccc2c(-c3ccc(CS(C)(=O)=O)c(F)c3)c(C(=O)O)[nH]c12 (mixture of isomers)

>  <IC50>
> 0.01 µM

$$$$
>  <molecule>
CC(Oc1ccc(CN)cc1)c1cccc2c(-c3ccc(CS(C)(=O)=O)c(F)c3)c(C(=O)O)[nH]c12 (centres unmarked)

>  <IC50>
0.001 to 0.01 µM

$$$$
>  <molecule>
C[C@@H](c1cccc2c(N3CCS(=O)(=O)CC3)c(C(=O)O)[nH]c12)N1C[C@]2(C[C@@H](CN)C2)OC1=O

>  <IC50>
0.001 to 0.01 µM

$$$$
